Target: T1, Human IL-18Rα ectodomain (amino acids 19-329), biotinylated (human, UniProt Q13478 19-329, biotin on the AviTag (BirA ligase))
T1 construct: range 19-329; Secreted from insect cells (gp67 signal peptide removed); also called hIL-18Rα; hIL18Rα
T1 sequence: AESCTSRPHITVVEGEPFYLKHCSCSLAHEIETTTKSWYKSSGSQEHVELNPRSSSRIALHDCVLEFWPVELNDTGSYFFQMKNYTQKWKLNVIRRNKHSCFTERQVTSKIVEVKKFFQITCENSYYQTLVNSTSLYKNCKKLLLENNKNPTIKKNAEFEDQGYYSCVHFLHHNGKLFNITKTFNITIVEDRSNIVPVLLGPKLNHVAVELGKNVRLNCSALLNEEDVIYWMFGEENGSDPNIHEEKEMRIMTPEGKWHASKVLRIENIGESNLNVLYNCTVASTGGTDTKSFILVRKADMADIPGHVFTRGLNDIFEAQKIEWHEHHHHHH
Measurement description: SPR (Biacore T100), receptor captured via biotin, IL-18 as analyte
I'd be grateful if you could share measured pKd for these entries.
In textbook form, pKd equals minus log to base ten of the concentration in mol/L.

So what does the record say about pKd for SEQ ID NO: 34 (human DR-IL-18 variant hCS1) (ligand, Engineered variant) YFGKLESKLSVIRNLNDQVLFIDQGNRPLFEDMTDSDCRDNAPRTIFIISTYKDSQPRGKAVTISVKCEKISTLSCENKIISFKEMNPPDNIKDTKSDIIFFQRDVPGHKHKMQFESSSYEGYFLACEKERDLFKLILKKEDELGDRSIMFTVQNED ?
8.09

How about SEQ ID NO: 36 (human DR-IL-18 variant hCS3) (ligand, Engineered variant) RFGKLESKLSVIRNLNDQVLFIDQGNRPLFEDMTDSDCRDNAPRTIFIISTYKDSQPRGKAVTISVKCEKISTLSCENKIISFKEMNPPDNIKDTKSDIIFFQRDVPGHKHKMQFESSSYEGYFLACEKERDLFKLILKKEDELGDRSIMFTVQNED ?
8.09

How about SEQ ID NO: 37 (human DR-IL-18 variant hCS4) (ligand, Engineered variant) RFGKLESKLSVIRNLNDQVLFIDQGNRPLFEDMTDSDCRDNAPRTIFIISTYRDSQPRGKAVTISVKCEKISTLSCENKIISFKEMNPPDNIKDTKSDIIFFQRNVPGHKYKMQFESSSYEGYFLACEKERDLFKLILKKEDELGDRSIMFTVQNED ?
8.36

How about SEQ ID NO: 35 (human DR-IL-18 variant hCS2) (ligand, Engineered variant) YFGKLESKLSVIRNLNDQVLFIDQGNRPLFEDMTDSDCRDNAPRTIFIISTYKDKQPRAKAVTISVKCEKISTLSCENKIISFKEMNPPDNIKDTKSDIIFFQRDVPGHKHKMQFESSSYEGYFLACEKERDLFKLILKKEDELGDRSIMFTIQNED ?
7.88
